meta.source: patent US20250059474A1

# Method Summary: Solubility in water at 20° C.
# Type: physicochemical
# Stated Conditions: equated from g/L
Readout Name: solubility in water

>  <Compound>
CN1CCN(C)CCN(C)CC1.CN1CCN(C)CCN(C)CC1.O.O.O.[Cl-].[Cl-].[Mn+4].[Mn+4].[O-2].[O-2].[O-2] [MnTACN-Cl2, [Mn^IV2(μ-O)3(Me3-TACN)2]Cl2*3H2O]

>  <Reported Measurement>
> 18.2 wt %

$$$$
>  <Compound>
CN1CCN(C)CCN(C)CC1.CN1CCN(C)CCN(C)CC1.Cc1ccc(S(=O)(=O)[O-])cc1.Cc1ccc(S(=O)(=O)[O-])cc1.[Mn+4].[Mn+4].[O-2].[O-2].[O-2] [MnTACN-Ts2, [Mn^IV2(μ-O)3(Me3-TACN)2](tosylate)2]

>  <Reported Measurement>
> 10 wt %

$$$$
>  <Compound>
CN1CCN(C)CCN(C)CC1.CN1CCN(C)CCN(C)CC1.O.O.O.O.O=S(=O)([O-])[O-].[Mn+4].[Mn+4].[O-2].[O-2].[O-2] [MnTACN-SO4, [Mn^IV2(μ-O)3(Me3-TACN)2]SO4*4H2O]

>  <Reported Measurement>
> 73.5 wt %

$$$$
>  <Compound>
CN1CCN(C)CCN(C)CC1.CN1CCN(C)CCN(C)CC1.O=[N+]([O-])[O-].O=[N+]([O-])[O-].[Mn+4].[Mn+4].[O-2].[O-2].[O-2] [MnTACN-NO3, [Mn^IV2(μ-O)3(Me3-TACN)2](NO3)2]

>  <Reported Measurement>
> 28.3 wt %

$$$$
